Cited source for all entries: patent US10457641B2

# Tested on: A549 (adenocarcinomic human alveolar basal epithelial cell)
# Run description: Inhibition of cancer cell growth, MTT assay, A549
# Format: cell-based
# Condition notes: 72 h treatment
Quantity kind: IC50

## Task Record request: IC50 value, item O=C(Nc1cc(F)c(F)c(C(=O)c2ccc3ncccc3c2)c1F)c1cccc(F)c1
## Result > 5 µM

## Task Query: IC50; subject: O=C(Nc1cc(F)c(F)c(C(=O)c2ccc3ncccc3c2)c1F)c1ccc(F)cc1
## Result > 5 µM

## Task Item O=C(Nc1cc(F)c(F)c(C(=O)c2ccc3ncccc3c2)c1F)c1ccc(F)c(F)c1 has what recorded IC50?
## Result > 5 µM

## Task Name the recorded IC50 for O=C(Nc1cc(F)c(F)c(C(=O)c2ccc3ncccc3c2)c1F)c1cc(F)cc(F)c1 .
## Result > 5 µM

## Task # query: IC50 of entry O=C(Nc1ccc(F)c(F)c1)Nc1cc(F)c(F)c(C(=O)c2ccc3ncccc3c2)c1F
## Result 1 to 5 µM

## Task Which value of IC50 has been reported for CCCS(=O)(=O)Nc1cc(F)c(F)c(C(=O)c2ccc3ncccc3c2)c1F in the records?
## Result > 5 µM

## Task Given O=C(Nc1ccc(F)cc1)Nc1cc(F)c(F)c(C(=O)c2ccc3ncccc3c2)c1F , state its recorded IC50.
## Result > 5 µM

## Task Any idea what IC50 was measured for CCCS(=O)(=O)Nc1cc(F)c(F)c(C(=O)c2ccc3ncncc3c2)c1F ?
## Result > 5 µM

## Task For the compound O=C(Nc1cc(F)cc(F)c1)Nc1cc(F)c(F)c(C(=O)c2ccc3ncccc3c2)c1F , what IC50 is on record?
## Result 1 to 5 µM

## Task # input compound: O=C(Nc1cccc(F)c1)Nc1cc(F)c(F)c(C(=O)c2ccc3ncccc3c2)c1F ; wanted: its IC50
## Result 1 to 5 µM

* * *

# Target: BRAF V600E (Homo sapiens, UniProt P15056, V600E)
# Construct: purchased Invitrogen
# Sequence (P15056 whole entry V600E): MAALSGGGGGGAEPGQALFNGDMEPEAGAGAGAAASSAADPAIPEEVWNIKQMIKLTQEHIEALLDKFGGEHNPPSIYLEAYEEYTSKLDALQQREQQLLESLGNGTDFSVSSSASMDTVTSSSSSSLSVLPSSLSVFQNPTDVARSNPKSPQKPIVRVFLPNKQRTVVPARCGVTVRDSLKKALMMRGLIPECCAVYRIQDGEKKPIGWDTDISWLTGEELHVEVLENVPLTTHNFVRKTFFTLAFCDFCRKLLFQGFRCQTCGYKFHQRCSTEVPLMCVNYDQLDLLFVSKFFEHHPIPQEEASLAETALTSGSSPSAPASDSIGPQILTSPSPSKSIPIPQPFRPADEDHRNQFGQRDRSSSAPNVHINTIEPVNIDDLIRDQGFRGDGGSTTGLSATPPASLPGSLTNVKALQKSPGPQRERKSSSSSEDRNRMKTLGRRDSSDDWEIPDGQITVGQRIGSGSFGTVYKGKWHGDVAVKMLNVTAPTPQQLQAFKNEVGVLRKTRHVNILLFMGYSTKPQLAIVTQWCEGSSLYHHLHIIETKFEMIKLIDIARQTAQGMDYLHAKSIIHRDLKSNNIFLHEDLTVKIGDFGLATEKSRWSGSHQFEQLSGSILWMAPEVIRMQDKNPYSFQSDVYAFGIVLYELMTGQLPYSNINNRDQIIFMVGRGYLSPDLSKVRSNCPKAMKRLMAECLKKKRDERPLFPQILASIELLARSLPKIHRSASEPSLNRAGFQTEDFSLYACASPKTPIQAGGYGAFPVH
# Run description: Z'-LYTE kinase inhibition assay, BRAF V600E
# Format: biochemical
# Condition notes: 1 μM compound; Z'-LYTE method
Task for the reader: assign each of the following compounds its reported inhibition at 1 µM.

## Task Requested field: inhibition at 1 µM. Item: O=C(Nc1ccc(F)c(F)c1)Nc1cc(F)c(F)c(C(=O)c2ccc3ncccc3c2)c1F [Compound C004]
## Result < 70%

## Task Requested field: inhibition at 1 µM. Item: O=C(Nc1cc(F)c(F)c(C(=O)c2ccc3ncccc3c2)c1F)c1ccc(F)cc1 [Compound C007]
## Result < 70%

## Task Form field: reported inhibition at 1 µM of O=C(Nc1cc(F)cc(F)c1)Nc1cc(F)c(F)c(C(=O)c2ccc3ncccc3c2)c1F [Compound C005]
## Result < 70%

## Task Query (compound): O=C(Nc1ccc(F)cc1)Nc1cc(F)c(F)c(C(=O)c2ccc3ncccc3c2)c1F [Compound C003] ; field requested: inhibition at 1 µM
## Result < 70%

## Task // returns reported inhibition at 1 µM for input O=C(Nc1cc(F)c(F)c(C(=O)c2ccc3ncccc3c2)c1F)c1cccc(F)c1 [Compound C006]
## Result 70 to 89%

## Task Which value of inhibition at 1 µM has been reported for O=C(Nc1cc(F)c(F)c(C(=O)c2ccc3ncccc3c2)c1F)c1ccc(F)c(F)c1 [Compound C009] in the records?
## Result < 70%

## Task Need inhibition at 1 µM of CCCS(=O)(=O)Nc1cc(F)c(F)c(C(=O)c2ccc3ncncc3c2)c1F [Compound C010] , thanks.
## Result > 89%

## Task I would be grateful if you could share the reported inhibition at 1 µM for O=C(Nc1cccc(F)c1)Nc1cc(F)c(F)c(C(=O)c2ccc3ncccc3c2)c1F [Compound C002] .
## Result < 70%

## Task // inhibition at 1 µM lookup, key: CCCS(=O)(=O)Nc1cc(F)c(F)c(C(=O)c2ccc3ncccc3c2)c1F [Compound C001]
## Result > 89%

## Task Which inhibition at 1 µM value is on record for O=C(Nc1cc(F)c(F)c(C(=O)c2ccc3ncccc3c2)c1F)c1cc(F)cc(F)c1 [Compound C008] ?
## Result < 70%
